Values were extracted from the RNAGym collection of RNA variant scans (doi:10.1021/acssynbio.7b00057).

B1: Pistol ribozyme (parent)
chain: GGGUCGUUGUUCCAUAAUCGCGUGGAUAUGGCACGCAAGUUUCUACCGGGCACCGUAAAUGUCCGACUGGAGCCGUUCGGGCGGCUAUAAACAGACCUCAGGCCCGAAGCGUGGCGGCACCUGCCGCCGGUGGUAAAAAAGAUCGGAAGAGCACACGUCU

variants of: B1; experiment: aptazyme ON/OFF ratio, guanine; higher = stronger switching; co-transcriptional cleavage with and without guanine

| mutation annotation | aptazyme ON/OFF ratio |
| --- | --- |
| U7C U8A U11G C12A C13G | 1.14 |
| U7G U8C G9C U11C C12G C13U | 1.11 |
| U7C U8G G9C U10A U11A C13G | 1.08 |
| U7G U8A G9C U10G U11A C12A | 1 |
| U8A G9A U10G U11A C12G | 1.24 |
| U7G U8C G9C U10G C12A C13U | 1.13 |
| U7A U8A G9A U10G U11G C13U | 1.07 |
| U7G U8G G9C U10G U11G C12G C13U | 1.1 |
| U7A U8C G9A U10A U11A C13A | 1.35 |
| U7A U10C C12U | 3.22 |
| U7G U8A G9A U10A C12G | 1.19 |
| U7A U8C G9C U10A C12G C13G | 1.14 |
| U8A U10G U11G C12U C13U | 1.43 |
| U7C U8C G9A U10G C12A C13U | 1.06 |
| U8G G9A U10C U11C | 1.03 |
| U8A G9A U10A U11G C12G C13A | 1.21 |
| U7C U8A G9C U10G U11A C12U C13A | 1.16 |
| U8G U10A U11C C13A | 1.03 |
| U7A G9C U11C C13G | 1.04 |
| U8C G9U C12U C13G | 1.04 |
| U7G G9U U11A C13U | 1.27 |
| U8G G9U U10G U11A C12A | 1.08 |
| U7A U8C U10A U11C C12U C13G | 1.07 |
| U7G U8C U10A U11C C12G C13A | 1.11 |
| U8C G9A U10C U11A C12A C13G | 1.27 |
| U7G G9U U10A U11G C13A | 1.13 |
| U7G G9A C12G C13A | 1.13 |
| U7C U8A G9C U10G C12A C13U | 1.13 |
| U7C G9C U10G U11G | 1.11 |
| U7A U8C U10A U11G C12G C13A | 1.36 |
| U7G U8C U10A U11G C12G C13G | 1.3 |
| U7G U8G G9C U10G U11G C12U | 1.19 |
| G9C U10A U11C C12A C13U | 1.29 |
| U7G U8A G9C U10G U11A C12A C13A | 1.04 |
| U7A U8A G9U U10G C12G C13A | 1.21 |
| U8C U10A U11G C12G | 1.31 |
| G9U U11C C12G C13U | 1.68 |
| U7A U8A G9C C12G C13U | 1.18 |
| U8C G9U U10C U11G C12A C13G | 1.17 |
| U7G U8C G9A U10G U11G C12U C13A | 1.28 |
| U7G U8C G9C U10G C12G C13A | 1.09 |
| U7A U8G G9U C12G C13G | 1.4 |
| U7C U8C G9C U10G U11A | 1.3 |
| U7G U8A G9U U10G U11G C13U | 1.18 |
| U7A G9A U10C U11A C12G | 1.27 |
| U7A U8C G9C U10C U11G C12A C13U | 1.11 |
